What log10 IC50 was measured for each of the following?
- tested_on: WT-Integrase (Human immunodeficiency virus type 1 group M subtype B, UniProt P04585)
- Construct: assembled PVT SPA beads with WT-Integrase and boitinylated DNA
- assay_procedure: InSTANT integrase DNA strand transfer functional assay
- Format: biochemical, HIV
- condition_set: SPA strand transfer, 15 minutes at 37° C.
Structures can show the parent of a compound that is named as a salt.
In plain terms, each number is the log10 of measured IC50 in nM.

**Query** Any idea what its log10 IC50 is? The compound is CCC1COCc2c1c(=O)c(O)c1n2CCN(Cc2ccc(F)c(Cl)c2)C1=O (stereo not shown)
**Result** 1.11

**Query** Name the reported log10 IC50 value associated with the compound O=C1c2c(O)c(=O)c3c(n2CCN1Cc1ccc(F)c(Cl)c1)COC31CCCC1O (stereo not shown)
**Result** 1.08

**Query** Quick one: log10 IC50 for "O=C1c2c(O)c(=O)c3c(n2CCN1Cc1ccc(F)c(Cl)c1)COCC=C3" ?
**Result** 1.04

**Query** What log10 IC50 value was documented for this compound, O=C1c2c(O)c(=O)c3c(n2CCN1Cc1ccc(F)c(Cl)c1)COC31CCC2CC21 (stereo not shown) ?
**Result** 0.90

**Query** // returns reported log10 IC50 for input "CC(C)c1c(C(=O)N(C)C)n2c(c(O)c1=O)C(=O)N(Cc1ccc(F)c(Cl)c1)CC2"
**Result** 1.00

**Query** Fill in: log10 IC50 of CC1CCN(C(=O)C(=O)N(C)C)Cc2c1c(=O)c(O)c1n2CCN(Cc2ccc(F)c(Cl)c2)C1=O (stereo not shown) is ___
**Result** 1.30

**Query** What value of log10 IC50 has been recorded for this entry: CC1COCc2c1c(=O)c(O)c1n2CCN(Cc2ccc(F)c(Cl)c2)C1=O (stereo not shown)
**Result** 1.32

**Query** Entry "CC(C)c1c(C(=O)N(C)C)n2c(c(O)c1=O)C(=O)N(Cc1ccc(F)cc1)CC2" : reported log10 IC50 = ?
**Result** 1.30

**Query** Any idea what its log10 IC50 is? The compound is CCC1COCc2c1c(=O)c(O)c1n2CCN(Cc2ccc(F)cc2)C1=O (stereo not shown)
**Result** 1.32

**Query** Record request: log10 IC50 value, item "O=C1c2c(O)c(=O)c3c(n2CCN1Cc1ccc(F)c(Cl)c1)COCCC3"
**Result** 1.76

**Query** Query (compound): "C=C1CN(C)C(=O)c2c1c(=O)c(O)c1n2CCN(Cc2ccc(F)c(Cl)c2)C1=O" ; field requested: log10 IC50
**Result** 0.30

**Query** Reported log10 IC50 for CC(C)c1c(CN)n2c(c(O)c1=O)C(=O)N(Cc1ccc(F)c(Cl)c1)CC2 [Compound 32, trifluoroacetate salt] : what is it?
**Result** 1.15

**Query** Request the reported log10 IC50 associated with CC1CC12COCc1c2c(=O)c(O)c2n1CCN(Cc1ccc(F)c(Cl)c1)C2=O (stereo not shown)
**Result** 1.45

**Query** Please look up its log10 IC50: "CC(C)c1c(CNC(=O)OC(C)(C)C)n2c(c(O)c1=O)C(=O)N(Cc1ccc(F)c(Cl)c1)CC2"
**Result** 1.62

**Query** What does the data say about its log10 IC50? Entry: "CC1=CCOCc2c1c(=O)c(O)c1n2CCN(Cc2ccc(F)c(Cl)c2)C1=O"
**Result** 1.26

**Query** Reported log10 IC50, compound "Cc1cn(C)c(=O)c2c1c(=O)c(O)c1n2CCN(Cc2ccc(F)c(Cl)c2)C1=O" : ____
**Result** 0.00
